- system.under.test: UniProtKB P47871
- test.description: Glucagon cAMP Assay (Cisbio cAMP detection)
- Type: cell-based
- conditions.used: CHOK1 cells stably transfected with the human glucagon receptor; block of glucagon induced cAMP production; Kb by modified Cheng-Prusoff equation
Below, each entry is listed with its recorded Kb.
Field format: number, assumed nM, no unit text.

What is its Kb for UniProtKB P47871? Entry: CCCC(Nc1ccc(-n2cc(C(F)(F)F)cn2)nc1)c1ccc(C(=O)NCCC(=O)O)cc1C (single isomer, unassigned) [Example 111] 2350

What do you get for CCCc1ccn(-c2ccc(OC(CCC)c3ccc(C(=O)NCCC(=O)O)cn3)cc2)n1 (racemic) [Example 38] ? 2130

What do you get for O=C(O)CCNC(=O)c1ccc(NC(c2ccc(-n3cc(C(F)(F)F)cn3)cc2)C2CCCCC2)nc1 (racemic) [Example 99] ? 376

What do you get for CC(C)CC(Oc1ccc(C(=O)NCCC(=O)O)cc1)c1ccc(-n2cnc(C(F)(F)F)c2)cc1 (racemic) [Example 2] ? 5280

----------
- system.under.test: UniProtKB P47871
Note to self: Ki under 50 nM means satisfied, ties and anything higher get not satisfied.

Before answering, review these 3 worked examples.
Does the reported Ki of CCCCc1ccn(-c2ccc(OC(CCC)c3ccc(C(=O)NCCC(=O)O)cc3)cc2)n1 (racemic) stay below 50 nM? not satisfied

What do you get for Cc1nn(-c2ccc(N[C@H](c3ccc(C(=O)NCCC(=O)O)cc3)C3CCCC3)cn2)cc1Cl (single isomer, unassigned; isomer 1) [Example 191] ? satisfied

What do you get for CC1(C)CC(C(Nc2cnc(-n3cc(C(F)(F)F)cn3)nc2)c2ccc(C(=O)NCCC(=O)O)cc2)C1 (single isomer, unassigned; isomer 2) [Example 158] ? satisfied

Now for another entry.
Does the reported Ki of CCCC(Oc1cc(C)c(-n2cc3ccccc3n2)c(C)c1)c1ccc(C(=O)NCCC(=O)O)cc1 (centres unmarked) stay below 50 nM? not satisfied

----------
- system.under.test: human glucagon receptor (Homo sapiens (Human))
- test.description: Glucagon cAMP Assay (Cisbio cAMP detection)
- Assay type: cell-based
- conditions.used: CHOK1 cells stably transfected with the human glucagon receptor; block of glucagon induced cAMP production; Kb by modified Cheng-Prusoff equation
quantity.measured: Kb

Solved cases (3 shown):
Quick one: Kb for CCCC(Oc1ccc(-c2cn[nH]c2)cc1)c1ccc(C(=O)NCCC(=O)O)cc1 (racemic) [Example 56] ? 4370 nM

What do you get for O=C(O)CCNC(=O)c1ccc([C@@H](Nc2ccc(-n3cc(C(F)(F)F)cn3)nc2)C2CCCCC2)cc1 (single isomer, unassigned) [Example 147] ? 343 nM

What do you get for CCCCc1cn(-c2ccc(OC(CCC)c3ccc(C(=O)NCCC(=O)O)cc3)cc2)cn1 (racemic) [Example 34] ? 1710 nM

Next:
Quick one: Kb for CCCC(Oc1ccc(-n2nc(C)cc2OC)cc1)c1ccc(C(=O)NCCC(=O)O)cc1 (racemic) [Example 33] ? 1560 nM

What do you get for CC(C)(C)CC(Nc1ccc(-n2cnc(C(F)(F)F)c2)nc1)c1ccc(C(=O)NCCC(=O)O)cc1 (racemic) [Example 100] ? 226 nM

----------
- system.under.test: human glucagon receptor (Homo sapiens (Human), UniProt P47871)
- Sequence (P47871 26-477): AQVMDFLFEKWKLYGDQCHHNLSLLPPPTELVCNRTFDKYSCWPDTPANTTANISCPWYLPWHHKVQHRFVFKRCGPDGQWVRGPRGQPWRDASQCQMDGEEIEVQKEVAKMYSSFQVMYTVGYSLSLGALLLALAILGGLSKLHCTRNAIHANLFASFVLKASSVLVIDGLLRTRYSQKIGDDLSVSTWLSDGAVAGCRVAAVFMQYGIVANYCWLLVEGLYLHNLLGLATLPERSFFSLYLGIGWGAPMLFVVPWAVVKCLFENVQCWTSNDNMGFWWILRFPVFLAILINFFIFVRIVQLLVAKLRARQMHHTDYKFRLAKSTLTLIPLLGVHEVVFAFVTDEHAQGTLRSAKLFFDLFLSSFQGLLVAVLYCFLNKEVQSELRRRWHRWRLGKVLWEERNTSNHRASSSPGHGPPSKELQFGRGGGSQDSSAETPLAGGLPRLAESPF
- test.description: Glucagon cAMP Assay (Cisbio cAMP detection)
- Assay type: cell-based
- conditions.used: CHOK1 cells stably transfected with the human glucagon receptor; block of glucagon induced cAMP production; Kb by modified Cheng-Prusoff equation
quantity.measured: Kb (nM)
Field format: number, assumed nM, no unit text.

Solved cases (2 shown):
Quick one: Kb for CCCC(Nc1ccc(-n2cnc(-c3ccccc3)c2)nc1)c1ccc(C(=O)NCCC(=O)O)cc1 (racemic) [Example 162] ? 55.8

What do you get for O=C(O)CCNC(=O)c1ccc(C(Oc2ccc(-n3cc4ccccc4n3)cc2)C2CCCC2)cc1 (racemic) ? 67

Next:
Quick one: Kb for O=C(O)CCNC(=O)c1ccc(C(Nc2ccc(-n3cnc(C(F)(F)F)c3)nc2)C2CCCC2)cc1 (single isomer, unassigned) [Example 98] ? 1060

----------
Below, each entry is listed with its recorded log10 of Kb.
- system.under.test: human glucagon receptor (Homo sapiens (Human), UniProt P47871)
- test.description: Glucagon cAMP Assay (Cisbio cAMP detection)
- Type: cell-based
- conditions.used: CHOK1 cells stably transfected with the human glucagon receptor; block of glucagon induced cAMP production; Kb by modified Cheng-Prusoff equation
Scale: log10; quantity: Kb; unit before log: nM

Solved cases (5 shown):
Quick one: log10 of Kb for O=C(O)CCNC(=O)c1ccc(C(Nc2ccc(-n3cc(C(F)(F)F)cn3)nc2)C2CCCCC2)cc1 (racemic) ? 1.90

What do you get for CC(C)c1cn(-c2ccc(NC(c3ccc(C(=O)NCCC(=O)O)cc3)C3CCCC3)cn2)cn1 (stereo not drawn) ? 2.03

What do you get for CCCC(Oc1ccc(-n2cc3cc(F)ccc3n2)cc1)c1ccc(C(=O)NCCC(=O)O)cc1 (racemic) ? 2.24

What do you get for O=C(O)CCNC(=O)c1ccc([C@H](CCC(F)(F)F)Nc2ccc(-n3cc(C(F)(F)F)cn3)nc2)cc1 (single isomer, unassigned; isomer 1) [Example 172] ? 1.78

What do you get for CCCCc1nccn1-c1ccc(OC(CCC)c2ccc(C(=O)NCCC(=O)O)cc2)cc1 (racemic) ? 3.91

Next:
Quick one: log10 of Kb for CCCC(Nc1ccc(C(=O)NCCC(=O)O)cn1)c1ccc(-n2cc(C(F)(F)F)cn2)nc1 (stereo not drawn) ? 2.99

What do you get for CCCC(Oc1ccc(-n2cncn2)cc1)c1ccc(C(=O)NCCC(=O)O)cc1 (racemic) ? 3.89

What do you get for CCCC(Oc1ccc(-n2nc(C)cc2C)cc1)c1ccc(C(=O)NCCC(=O)O)cc1 (racemic) ? 3.53

What do you get for CCCC(Oc1ccc(-c2cnn(CCC)c2)cc1)c1ccc(C(=O)NCCC(=O)O)cc1 (racemic) ? 3.19
